Reference for the values: patent US9487502B2

Recorded measurements of SETFA damage score, application post-emergence, one per entry
# System: Setaria faberi
# measurement.description: Post-emergence herbicidal activity, SETFA
# Format: in vivo
# condition.label: 1000 g/Ha, sprayed post-emergence (8 days cultivation), evaluated after 13 days, scale 0-5

Prompt line: Please look up its SETFA damage score, application post-emergence: CC1NC(=O)N(c2cc(C(C)(C)C)ncn2)C1O (centres unmarked)
Response line: 2

Prompt line: # input compound: COC1C(O)N(c2cc(C(C)(C)C)ncn2)C(=O)N1OC (centres unmarked) ; wanted: its SETFA damage score, application post-emergence
Response line: 5

Prompt line: # query: SETFA damage score, application post-emergence of entry CON1C(=O)N(c2cc(C(C)(C)C)ncn2)C(O)C1O (centres unmarked)
Response line: 4

Next:
Prompt line: I am curious: what SETFA damage score, application post-emergence value has been reported for CN1CC(O)N(c2cc(C(C)(C)F)ncn2)C1=O (centres unmarked) ?
Response line: 5

Prompt line: Please give the measured SETFA damage score, application post-emergence for this compound: CC1C(O)N(c2cc(C(C)(C)C#N)ncn2)C(=O)N1C (centres unmarked)
Response line: 5

* * *

# System: Setaria faberi
# measurement.description: Pre-emergence herbicidal activity, SETFA
# Type: in vivo
# condition.label: 1000 g/Ha, sprayed pre-emergence, evaluated after 13 days, scale 0-5
compounds and their reported SETFA damage score, application pre-emergence
Reply briefly: the number, and no unit.

Known SETFA damage score, application pre-emergence results, listed for orientation:
Prompt line: Name the recorded SETFA damage score, application pre-emergence for COC1C(O)N(c2cc(C(C)(C)C)ncn2)C(=O)N1C (stereo not shown) [Example A11] .
Response line: 4

Prompt line: I would be grateful if you could share the reported SETFA damage score, application pre-emergence for CCOC1C(O)N(c2cc(C(C)(C)C)ncn2)C(=O)N1C (stereo not shown) [Example A5] .
Response line: 5

Prompt line: # input compound: C=CCC1C(O)N(c2cc(C(C)(C)C)ncn2)C(=O)N1C (single isomer, unassigned) [Example A33] ; wanted: its SETFA damage score, application pre-emergence
Response line: 4

Prompt line: I'd like to know its SETFA damage score, application pre-emergence. The compound in question is COC1C(O)N(c2cc(C(C)(C)C)ncn2)C(=O)N1OC (stereo not shown) [Example A7]
Response line: 4

Prompt line: Form field: reported SETFA damage score, application pre-emergence of CCOC1C(O)N(c2cc(C(C)(C)C)ncn2)C(=O)N1OC (stereo not shown) [Example A8]
Response line: 5

***
Prompt line: SETFA damage score, application pre-emergence for CON1C(=O)N(c2cc(C(C)(C)C#N)ncn2)C(O)C1C (stereo not shown) [Example A25] ?
Response line: 5

Prompt line: I am curious: what SETFA damage score, application pre-emergence value has been reported for CCO[C@@H]1C(O)N(c2cc(C(C)(C)F)ncn2)C(=O)N1C (stereo partly shown) [Example A38] ?
Response line: 5

Prompt line: May I ask what SETFA damage score, application pre-emergence has been recorded for CN1C(=O)N(c2cc(C(C)(C)C)ncn2)C(O)C1C(F)(F)F (stereo not shown) [Example A31] ?
Response line: 4

Prompt line: Returns the measured SETFA damage score, application pre-emergence for the input compound. Input: CC1C(O)N(c2cc(C(C)(C)F)ncn2)C(=O)N1C (stereo not shown) [Example A20]
Response line: 5

Prompt line: // lookup SETFA damage score, application pre-emergence for CC1C(O)N(c2cc(C(C)(C)C)ncn2)C(=O)N1C (stereo not shown) [Example A3]
Response line: 5

* * *

# System: Echinochloa crus-galli
# measurement.description: Post-emergence herbicidal activity, ECHCG
# Type: in vivo
# Design: key: 5=total damage to plant; 0=no damage to plant
# condition.label: 1000 g/Ha, sprayed post-emergence (8 days cultivation), evaluated after 13 days, scale 0-5
The following molecules are shown together with reported ECHCG damage score, application post-emergence values.
Lab note: jot down the number only; don't add units.

Prompt line: # ECHCG damage score, application post-emergence lookup, item CN1C(=O)N(c2cc(C(C)(C)C)ncn2)C(O)C1CC(F)(F)F (stereo not shown) [Example A34]
Response line: 0

--- query ---
Prompt line: Need ECHCG damage score, application post-emergence, item CCN1C(=O)N(c2cc(C(C)(C)C)ncn2)C(O)C1OC (stereo not shown) [Example A26]
Response line: 0

* * *

# System: Zea mays
# measurement.description: Pre-emergence herbicidal activity, ZEAMX
# Assay type: in vivo
# condition.label: 1000 g/Ha, sprayed pre-emergence, evaluated after 13 days, scale 0-5
Threshold 1: ZEAMX damage score, application pre-emergence strictly smaller gives t, otherwise f.

Prompt line: Report whether reported ZEAMX damage score, application pre-emergence is lower than 1 (strictly) for CCCC1C(O)N(c2cc(C(C)(C)C)ncn2)C(=O)N1C (stereo not shown)
Response line: f

Prompt line: Here's an entry: CN1CC(O)N(c2cc(C(C)(C)F)ncn2)C1=O (stereo not shown) . Is its ZEAMX damage score, application pre-emergence below 1?
Response line: f

Prompt line: Quick check: ZEAMX damage score, application pre-emergence of CCCOC1C(O)N(c2cc(C(C)(C)C)ncn2)C(=O)N1C (stereo not shown) under 1?
Response line: f

Prompt line: I'd appreciate it if you could check whether CN1CC(O)N(c2cc(C(C)(C)C)ncn2)C1=O (stereo not shown) has ZEAMX damage score, application pre-emergence smaller than 1.
Response line: f

Prompt line: Check if ZEAMX damage score, application pre-emergence falls below 1 for CCCOC1C(OCCC)N(c2cc(C(C)(C)C)ncn2)C(=O)N1C (stereo not shown) .
Response line: t

Prompt line: # strict comparison: is reported ZEAMX damage score, application pre-emergence < 1? input = CN1C(=O)N(c2cc(C(C)(C)C)ncn2)C(O)C1O (stereo not shown)
Response line: t

Prompt line: Determine whether this compound shows ZEAMX damage score, application pre-emergence lower than 1 (ties excluded): CCC1C(O)N(c2cc(C(C)(C)C)ncn2)C(=O)N1C (stereo not shown)
Response line: f

Prompt line: Say whether its ZEAMX damage score, application pre-emergence is strictly beneath 1. Entry: CN1CC(O)N(c2cc(C(C)(C)CCl)ncn2)C1=O (stereo not shown)
Response line: f

* * *

# System: Alopecurus myosuroides
# measurement.description: Pre-emergence herbicidal activity, ALOMY
# Assay type: in vivo
# condition.label: 1000 g/Ha, sprayed pre-emergence, evaluated after 13 days, scale 0-5
# Method: Seeds of a variety of test species were sown in standard soil in pots. […] After 13 days, the test was evaluated (5=total damage to plant; 0=no damage to plant).
Listed here: items and their measured ALOMY damage score, application pre-emergence.
// keep it numeric: no unit symbol after the value

Prompt line: For CCOC1C(O)N(c2cc(C(C)(C)C#N)ncn2)C(=O)N1C (stereo not shown) , what is its reported ALOMY damage score, application pre-emergence?
Response line: 1

* * *

# Tested on: Setaria faberi
# measurement.description: Post-emergence herbicidal activity, SETFA
# Assay type: in vivo
# Parameters: key: 5=total damage to plant; 0=no damage to plant
# condition.label: 1000 g/Ha, sprayed post-emergence (8 days cultivation), evaluated after 13 days, scale 0-5
reported.metric: SETFA damage score, application post-emergence
Form: value (number only, do not type unit).

Reference set (6 entries):
Prompt line: # lookup: SETFA damage score, application post-emergence of CC1C(O)N(c2cc(C(C)(C)C)ncn2)C(=O)N1C (stereo not shown)
Response line: 5

Prompt line: // returns reported SETFA damage score, application post-emergence for input CC1C(OC(=O)Nc2ccc([N+](=O)[O-])cc2)N(c2cc(C(C)(C)C)ncn2)C(=O)N1C (stereo not shown)
Response line: 5

Prompt line: I am curious: what SETFA damage score, application post-emergence value has been reported for CCC1C(O)N(c2cc(C(C)(C)C)ncn2)C(=O)N1C (stereo not shown) ?
Response line: 5

Prompt line: Which SETFA damage score, application post-emergence is reported for this compound? CN1C(=O)N(c2cc(C(C)(C)C)ncn2)C(O)C1O (stereo not shown)
Response line: 4

Prompt line: Given CN1CC(O)N(c2cc(C(C)(C)CCl)ncn2)C1=O (stereo not shown) , state its recorded SETFA damage score, application post-emergence.
Response line: 5

Prompt line: Entry under review: COCC1NC(=O)N(c2cc(C(C)(C)C)ncn2)C1O (stereo not shown) . Reported SETFA damage score, application post-emergence?
Response line: 4

Now look at this entry.
Prompt line: // SETFA damage score, application post-emergence lookup, key: CN1CC(O)N(c2cc(C(C)(C)C#N)ncn2)C1=O (stereo not shown)
Response line: 5

* * *

# System: Echinochloa crus-galli
# measurement.description: Post-emergence herbicidal activity, ECHCG
# Assay type: in vivo
# condition.label: 1000 g/Ha, sprayed post-emergence (8 days cultivation), evaluated after 13 days, scale 0-5
reported.metric: ECHCG damage score, application post-emergence
Just the number, please, no unit after it.

Prompt line: // query ECHCG damage score, application post-emergence value for entry CON1C(=O)N(c2cc(C(C)(C)C)ncn2)C(O)C1O (centres unmarked) [Example A9]
Response line: 4

Prompt line: So what does the record say about ECHCG damage score, application post-emergence for CON1C(=O)N(c2cc(C(C)(C)C#N)ncn2)C(O)C1C (centres unmarked) [Example A25] ?
Response line: 5

***
Prompt line: Any idea what ECHCG damage score, application post-emergence was measured for CCCOC1C(O)N(c2cc(C(C)(C)C)ncn2)C(=O)N1C (centres unmarked) [Example A10] ?
Response line: 4

Prompt line: Which ECHCG damage score, application post-emergence value is on record for CCOC1C(O)N(c2cc(C(C)(C)C)ncn2)C(=O)N1CC (centres unmarked) [Example A27] ?
Response line: 0

Prompt line: Dear colleague, I am looking for the recorded ECHCG damage score, application post-emergence of the following compound: CCCC1C(O)N(c2cc(C(C)(C)C)ncn2)C(=O)N1C (centres unmarked) [Example A17]
Response line: 5

Prompt line: Can you share its ECHCG damage score, application post-emergence? I mean this compound: CON1C(=O)N(c2cc(C(C)(C)F)ncn2)C(O)C1C (centres unmarked) [Example A21]
Response line: 5

Prompt line: Name the reported ECHCG damage score, application post-emergence value associated with the compound CCOC1C(O)N(c2cc(C(C)(C)C)ncn2)C(=O)N1OC (centres unmarked) [Example A8]
Response line: 5

Prompt line: Looking for the measured ECHCG damage score, application post-emergence of CN1CC(O)N(c2cc(C(C)(C)CCl)ncn2)C1=O (centres unmarked) [Example A40] , can you help?
Response line: 5

Prompt line: Data request, read-out ECHCG damage score, application post-emergence, for CC1C(O)N(c2cc(C(C)(C)C#N)ncn2)C(=O)N1C (centres unmarked) [Example A24]
Response line: 5

Prompt line: Bench note: what ECHCG damage score, application post-emergence did COCC1NC(=O)N(c2cc(C(C)(C)C)ncn2)C1O (centres unmarked) [Example A30] show?
Response line: 3

Prompt line: Given the compound CCO[C@@H]1C(O)N(c2cc(C(C)(C)F)ncn2)C(=O)N1C (some centres unmarked) [Example A38] , what is its reported ECHCG damage score, application post-emergence?
Response line: 5

Prompt line: Can you look up the measured ECHCG damage score, application post-emergence of CCC1C(O)N(c2cc(C(C)(C)C)ncn2)C(=O)N1OC (centres unmarked) [Example A19] for me?
Response line: 3
